These data points were gathered from patent US7101915B1.

test system: C3H/HeN mouse splenocytes stimulated with Concanavalin A (Con A); assay: Suppressive effect on mitogenic activity of mouse splenocytes in vitro, Con A as mitogen (MTT); type: cell-based; settings: Con A 5 μg/ml as mitogen, 3 days
PROPERTY LABEL: ConA IC50 (ng/mL)
One number for each entry, in ng/mL.

Some solved cases for reference:
**Q:** Recorded ConA IC50 for CC(C)=CCOc1ccc(-c2cc(C)c(-c3ccc(O)cc3)cc2C)cc1O with C3H/HeN mouse splenocytes stimulated with Concanavalin A (Con A), please?
**A:** 0.76

**Q:** Follow-up item: COc1cc(-c2ccc(O)cc2)c(OC)c(C)c1-c1ccc(OCC=C(C)C)c(O)c1
**A:** 0.6

**Q:** Follow-up item: COc1cc(-c2ccc(O)cc2)c(OC)c(O)c1-c1ccc(OCC=C(Cl)Cl)c(O)c1
**A:** 0.8

Hi team, please reply with ConA IC50 for each item in this list.
1. COc1cc(-c2ccc(OCc3ccccc3)c(N)c2)c(OC)cc1-c1ccc(OS(C)(=O)=O)cc1
2. C/C=C/COc1ccc(-c2c(OC)cc(-c3ccc(O)cc3)c(OC)c2O)cc1O
3. C#CC(O)COc1ccc(-c2c(OC)cc(-c3ccc(O)cc3)c(OC)c2O)cc1O (centres unmarked)
4. COc1cc(-c2c(OC)cc(-c3ccc(O)cc3)c(OC)c2CO)ccc1OCC=C(C)C

**A:**
1: 255; 2: 8.89; 3: 7.06; 4: 6.89
